Please go through the items and note down their FLuc Parameters Hill Coef.
Target: firefly luciferase, Photinus pyralis (FLuc) (Photinus pyralis)
Sequence (P08659 whole entry): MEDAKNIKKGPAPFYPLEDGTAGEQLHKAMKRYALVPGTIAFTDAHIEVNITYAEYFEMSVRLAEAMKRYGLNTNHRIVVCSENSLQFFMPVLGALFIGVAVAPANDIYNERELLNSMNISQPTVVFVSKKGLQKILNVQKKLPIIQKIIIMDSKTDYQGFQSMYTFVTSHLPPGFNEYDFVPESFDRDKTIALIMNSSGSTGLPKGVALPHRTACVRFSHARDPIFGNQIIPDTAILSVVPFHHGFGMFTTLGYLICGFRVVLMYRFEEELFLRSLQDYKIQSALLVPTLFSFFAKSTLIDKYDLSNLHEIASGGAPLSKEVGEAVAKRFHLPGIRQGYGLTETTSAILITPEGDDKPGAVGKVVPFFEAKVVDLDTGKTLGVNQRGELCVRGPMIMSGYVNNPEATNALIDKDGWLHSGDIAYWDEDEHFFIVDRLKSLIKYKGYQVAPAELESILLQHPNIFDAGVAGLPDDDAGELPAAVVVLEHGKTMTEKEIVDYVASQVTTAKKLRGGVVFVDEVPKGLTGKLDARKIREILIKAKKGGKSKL
Test: biochemical
Assay type: biochemical
Conditions: Hill equation fit of CRC
The answer should be written as a number, with no unit following it.

Specify measured FLuc Parameters Hill Coef for O=C(NCC1CC1)c1ccc(-c2cccc(C(=O)NC3CC3)c2)cc1 [GW806776X] . 1.51

Specify measured FLuc Parameters Hill Coef for N#Cc1cccc(Nc2ncc(-c3ccccc3)o2)c1 [GW627834A] . 1.21

Specify measured FLuc Parameters Hill Coef for CCn1c(-c2nonc2N)nc2cnc(Oc3cccc(NC(=O)c4ccc(N(C)C)cc4)c3)cc21 [GSK248233A] . 0.9

Specify measured FLuc Parameters Hill Coef for COc1ccc(Nc2ncc(-c3ccccc3)o2)cc1OC [GW575533A] . 1.17

Specify measured FLuc Parameters Hill Coef for Cc1ccc(Nc2ccnc(Nc3cccc(C(N)=O)c3)n2)cc1O [GW575808A] . 1.54

Specify measured FLuc Parameters Hill Coef for COc1cc(/C=N/Nc2ncnc3c2cnn3C(C)C)ccc1O [GW644007X] . 1.86

Specify measured FLuc Parameters Hill Coef for Cc1cccc(Nc2ncc(-c3ccccc3)o2)c1 [GW632046X] . 1.11

Specify measured FLuc Parameters Hill Coef for COc1cc(/C=N/Nc2ncnc3[nH]ncc23)ccc1O [GW578748X] . 1.33

Specify measured FLuc Parameters Hill Coef for `COc1ccc(-c2ccc3c(NC(=O)C4CC4)n[nH]c3n2)cc1` . 0.8

Specify measured FLuc Parameters Hill Coef for O=C1Nc2ccccc2/C1=C1\CCc2cc(O)ccc21 [GR105659X] . 1.01

Specify measured FLuc Parameters Hill Coef for N#Cc1c(NC(=O)c2ccccc2F)sc2c1CCCC2 [GW572738X] . 1.66

Specify measured FLuc Parameters Hill Coef for C/C(Nc1ccc(S(N)(=O)=O)cc1)=C1/C(=O)Nc2ccccc21 [GW335962X] . 1.51

----------
Please go through the items and note down their pIC50.
Biological target: firefly luciferase, Photinus pyralis (FLuc) (Photinus pyralis)
Test: biochemical
Format: biochemical
Settings: Table 3; read-out: FLuc IC50
Schema: pIC50 number; meaning minus log10 of the concentration expressed in molar units.

Specify measured pIC50 for COc1cc(Nc2ncc(-c3ccccc3)o2)cc(OC)c1 [GW631581B] . 5.19

Specify measured pIC50 for O=C(NCC1CC1)c1ccc(-c2cccc(C(=O)NC3CC3)c2)cc1 [GW806776X] . 5.04

Specify measured pIC50 for N#Cc1cccc(Nc2ncc(-c3ccccc3)o2)c1 [GW627834A] . 5.99

Specify measured pIC50 for CN(c1ccc(NC(=O)Nc2c(Cl)cccc2Cl)cc1)c1ccnc(Nc2cccc(CS(C)(=O)=O)c2)n1 [GW809897X] . 6.24

Specify measured pIC50 for CCn1c(-c2nonc2N)nc2cnc(Oc3cccc(NC(=O)c4ccc(N(C)C)cc4)c3)cc21 [GSK248233A] . 5.99

----------
Biological target: firefly luciferase, Photinus pyralis (FLuc) (Photinus pyralis)
Test: biochemical
Type: biochemical
Conditions: response relative to PTC124 control inhibitor; negative = inhibition; read-out: FLuc Parameters Efficacy
Use Yes when the recorded Emax is no lower than 80%; use No when it is lower.

Check the entry NC(=O)c1cccc(Nc2nccc(Nc3cccc(F)c3)n2)c1 [GW759710A] : does Emax equal or exceed 80%? Yes

Check the entry COC(=O)Nc1nc2ccc(Oc3ccc(NC(=O)Nc4cccc(C(=O)O)c4)cc3)cc2[nH]1 [GW701427A] : does Emax equal or exceed 80%? Yes

Check the entry COc1ccc(Nc2ncc(-c3ccccc3)o2)cc1OC [GW575533A] : does Emax equal or exceed 80%? Yes

Check the entry COc1ccccc1Nc1ncc(-c2ccccc2)o1 [GW577921A] : does Emax equal or exceed 80%? Yes

Check the entry O=C1Nc2ccccc2/C1=C1\CCc2cc(O)ccc21 [GR105659X] : does Emax equal or exceed 80%? Yes

Check the entry N#Cc1cccc(Nc2ncc(-c3ccccc3)o2)c1 [GW627834A] : does Emax equal or exceed 80%? Yes

Check the entry `COc1ccc(-c2ccc3c(NC(=O)C4CC4)n[nH]c3n2)cc1` : does Emax equal or exceed 80%? No

Check the entry O=C(NCC1CC1)c1ccc(-c2cccc(C(=O)NC3CC3)c2)cc1 [GW806776X] : does Emax equal or exceed 80%? No

Check the entry `N#Cc1c(NC(=O)c2ccc(F)cc2)sc2c1CCCC2` : does Emax equal or exceed 80%? No

Check the entry COc1cc(/C=N/Nc2ncnc3c2cnn3C(C)C)ccc1O [GW644007X] : does Emax equal or exceed 80%? No
